Every entry's value here was drawn from ChEMBL document CHEMBL3612065.

Exercise: state measured pIC50 for each of the compounds provided.
- Test system: HCT-116
- procedure.text: Cytotoxicity against human HCT116 cells assessed as growth inhibition after 48 hrs by MTT assay
- Assay type: functional, cell-based
- condition.summary: HCT-116, 48 h
// pIC50 here means minus log10 of the molar concentration (mol/L)

Look up pIC50 for this compound: `O=C(NO)c1ccc(NC(=O)[C@H](Cc2c[nH]c3ccccc23)NC(=O)c2ccco2)cc1`
5.56

For the compound shown here, `O=C(NO)c1ccc(NC(=O)[C@H](Cc2c[nH]c3ccccc23)NC(=O)c2ccc(Cl)cc2)cc1` , give the reported pIC50.
5.84
